meta.source: patent US6451805B1

Measured Endpoint: melting point (°C)

Examples with answers:
[O-][S+](NCc1cccc2ccccc12)c1ccc(-c2nn(Cc3ccccc3F)c3ncccc23)o1 (stereo not drawn) [Example 63]; 158
Cc1cc(C)c2c(-c3ccc(CO)o3)nn(Cc3ccccc3)c2n1 [Example 43]; 155
Cc1coc(-c2nn(Cc3ccccc3F)c3ncccc23)n1 [Example 67]; 106
CC(C)N[S+]([O-])c1ccc(-c2nn(Cc3ccccc3F)c3ncccc23)o1 (stereo not drawn) [Example 56]; 136

a. [O-][S+](NC1CCCCCC1)c1ccc(-c2nn(Cc3ccccc3F)c3ncccc23)o1 (stereo not drawn) [Example 60]
b. CCCCCCCCN[S+]([O-])c1ccc(-c2nn(Cc3ccccc3F)c3ncccc23)o1 (stereo not drawn) [Example 53]
Input line: When their melting point values are compared, which is larger, a or b ? Reply with the label of the item you choose.
Output line: a
(a: 161 °C, b: 69 °C)

P. CC(N[S+]([O-])c1ccc(-c2nn(Cc3ccccc3F)c3ncccc23)o1)c1ccccc1 (stereo not drawn) [Example 64]
Q. CN1CCC([S+]([O-])c2ccc(-c3nn(Cc4ccccc4F)c4ncccc34)o2)CC1 (stereo not drawn) [Example 52]
Input line: // compare: P vs Q , metric melting point, want the smaller Give the chosen item's label as your response.
Output line: P

1. [O-][S+](c1ccc(-c2nn(Cc3ccccc3F)c3ncccc23)o1)N1CCOCC1 (stereo not drawn) [Example 54]
2. Nc1ncnc2c1c(-c1ccc(CO)o1)nn2Cc1ccccc1 [Example 35]
Input line: Compare 1 and 2 and name the one whose reported melting point is smaller. Selection: enter the item's label.
Output line: 1

* * *

Measured Endpoint: melting point (°C)

Some entries whose results are on file:
COCCOc1cnc2c(c1)c(-c1ccc(CO)o1)nn2Cc1ccccc1F; 106
[O-][S+](Nc1cccc(Cl)c1)c1ccc(-c2nn(Cc3ccccc3F)c3ncccc23)o1 (centres unmarked); 110
[O-][S+](NCc1ccccc1)c1ccc(-c2nn(Cc3ccccc3F)c3ncccc23)o1 (centres unmarked); 126
CC(C)CN[S+]([O-])c1ccc(-c2nn(Cc3ccccc3F)c3ncccc23)o1 (centres unmarked); 109
OCc1ccc(-c2nn(Cc3ccccc3)c3ncncc23)o1; 165

P. [O-][S+](NC1CC1)c1ccc(-c2nn(Cc3ccccc3F)c3ncccc23)o1 (centres unmarked)
Q. Nc1nc(N)c2c(-c3ccc(CO)o3)nn(Cc3ccccc3F)c2n1
Input line: Of the two listed items, P and Q , which carries the larger melting point figure? Bench note: the answer is the label of the chosen record.
Output line: Q
(Q: 205 °C, P: 138 °C)
